# Assay type: cell-based, human
# Setup conditions: human, Cell viability (%)
Bridge positions count the residues as written; N and C are the ends. Square brackets hold non-standard residues; d marks the D form. Peptide text beside a SMILES is read from it. Phe(4-guanidino) = N=C(N)Nc1ccc(C[C@H](N)C(=O)O)cc1
Readout type: viability at 2 h, 25 µM (%)
Numbers only, in %.

// CC[C@H](C)[C@H](NC(=O)[C@H](CCCNC(=N)N)NC(=O)[C@H]1CCC(=O)NCCCC[C@H](NC(=O)[C@H](Cc2ccccc2)NC(=O)[C@H](Cc2c[nH]c3ccccc23)NC(=O)[C@@H]2CCCN2C(=O)[C@@H](NC(=O)[C@@H](N)Cc2ccccc2)C(C)C)C(=O)N[C@@H](CCCCN)C(=O)N[C@@H](Cc2ccc(NC(=N)N)cc2)C(=O)N[C@H](CC(C)C)C(=O)N1)C(=O)N[C@@H](CC(C)C)C(N)=O [Peptide 10, FVPWF[KK(p-guanidino)Fle]RIL] (H-FVPWFKK[Phe(4-guanidino)][dL][dE]RIL-NH2; lactam 6-10) : viability at 2 h, 25 µM value = 112

Cited source for all entries: paper PMC12703733
